- SYSTEM: Full length SHP2 protein (Recombinant Human SHP-2) (Homo sapiens, UniProt Q06124)
- Sequence (Q06124 2-593 limits assumed): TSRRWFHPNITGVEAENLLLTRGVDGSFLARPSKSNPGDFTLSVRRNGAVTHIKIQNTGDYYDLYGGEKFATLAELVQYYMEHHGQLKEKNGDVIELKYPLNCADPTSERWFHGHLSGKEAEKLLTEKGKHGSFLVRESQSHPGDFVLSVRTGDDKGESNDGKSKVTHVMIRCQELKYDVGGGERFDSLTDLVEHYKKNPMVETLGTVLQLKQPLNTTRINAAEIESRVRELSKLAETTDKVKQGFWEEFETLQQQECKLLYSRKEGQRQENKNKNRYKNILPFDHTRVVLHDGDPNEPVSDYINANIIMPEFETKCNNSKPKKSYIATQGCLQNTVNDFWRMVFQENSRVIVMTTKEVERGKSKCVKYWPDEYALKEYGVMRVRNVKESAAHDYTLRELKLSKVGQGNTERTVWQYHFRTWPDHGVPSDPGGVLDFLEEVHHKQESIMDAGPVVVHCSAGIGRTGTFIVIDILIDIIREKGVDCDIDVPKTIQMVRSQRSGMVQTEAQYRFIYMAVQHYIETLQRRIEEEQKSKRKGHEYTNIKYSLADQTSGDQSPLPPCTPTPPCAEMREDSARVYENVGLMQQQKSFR
- ASSAY_DETAILS: SHP2 biochemical assay (DiFMUP substrate, activating peptide IRSI_2pY)
- TEST_CONTEXT: DiFMUP substrate, activating peptide IRSI_2pY, 60 min at RT; read-out: SHP-2 Biochemical assay IC50
pIC50: −log10 of the molar value.
# pIC50 >= 5 gives MET, anything below gives NOT MET

Sample answers from the record:
MOLECULE	DISCRETE_LABEL
CC1(N)CCN(c2ncc(-c3cccc4nonc34)c(C(N)=O)n2)CC1	NOT MET
Cc1nc(N[C@H]2CCC[C@@H](N)C2)nc(C(N)=O)c1-c1cccc(Cl)c1Cl (atropisomer, axis not shown; (M)) [Compound 87]	MET
CC1(N)CCN(c2nc(Cl)c(-c3cccc(F)c3)c(C(N)=O)n2)CC1	NOT MET
NC(=O)c1nc(N2CCC3(CC2)Oc2ncccc2C3N)nc(N)c1-c1cccc(Cl)c1Cl (single isomer, unassigned) [Compound 129]	MET
Cc1nc(N2CCC3(CC3N)C2)nc(C(N)=O)c1-c1cccc(Cl)c1Cl (stereo not shown)	MET

Task: Record NC(=O)c1nc(N2C[C@H]3CCCCC[C@@H](C2)[C@@H]3N)nc(N)c1-c1cccc(Cl)c1Cl ; criterion: pIC50 no lower than 5. Met?
Result: NOT MET

Task: Record CC1(N)CCN(c2ncc(-c3cccc4[nH]cnc34)c(C(N)=O)n2)CC1 ; criterion: pIC50 no lower than 5. Met?
Result: NOT MET

Task: Record Cc1nc(N2C[C@@H]3CC[C@H](N)[C@@H]3C2)nc(C(N)=O)c1-c1cccc(Cl)c1Cl ; criterion: pIC50 no lower than 5. Met?
Result: NOT MET

Task: Record CC1(N)CCN(c2nc(N)c(-c3cccc(F)c3)c(C(N)=O)n2)CC1 ; criterion: pIC50 no lower than 5. Met?
Result: MET

###

- SYSTEM: Full length SHP2 protein (Recombinant Human SHP-2) (Homo sapiens)
- ASSAY_DETAILS: SHP2 biochemical assay (DiFMUP substrate, activating peptide IRSI_2pY)
- TEST_CONTEXT: DiFMUP substrate, activating peptide IRSI_2pY, 60 min at RT; read-out: SHP-2 Biochemical assay IC50
molecules and their reported pIC50
Units for pIC50: none; it is -log10 of a concentration expressed in mol/L.

MOLECULE	pIC50
Cc1nc(N2C[C@H](N)[C@@H](O)C2)nc(C(N)=O)c1-c1cccc(Cl)c1Cl	5.20
CC1(N)CCN(c2nc(N)c(-c3cccc(Cl)c3Cl)c(C(=O)NN)n2)CC1	5.80
NCC1(O)CN(c2nc(N)c(-c3cccc(Cl)c3Cl)c(C(N)=O)n2)C1	5.11

Now let's try a different one.
Task: Look up pIC50 for this molecule: CC1(N)CCN(c2nc(N)c(-c3cccc(Cl)c3Cl)c(C(N)=O)n2)CC1 [Compound No. 3]
Result: 6.80

###

- SYSTEM: Full length SHP2 protein (Recombinant Human SHP-2) (Homo sapiens, UniProt Q06124)
- ASSAY_DETAILS: SHP2 biochemical assay (DiFMUP substrate, activating peptide IRSI_2pY)
- TEST_CONTEXT: DiFMUP substrate, activating peptide IRSI_2pY, 60 min at RT; read-out: SHP-2 Biochemical assay IC50
ENDPOINT_NAME: IC50

COMPOUND	ENDPOINT_NAME	VAL
CC1(N)CCN(c2nc(N)c(-c3ccc4cn[nH]c4c3Cl)c(C(N)=O)n2)CC1 [Compound 62]	IC50	> 10 µM
Cc1nc(N2CCOC[C@@H]2CN)nc(C(N)=O)c1-c1cccc(Cl)c1Cl (atropisomer, axis not shown; (P)) [Compound 48]	IC50	> 10 µM
Cc1nc(N2C[C@H]3CC[C@H](N)[C@H]3C2)nc(C(N)=O)c1-c1cccc(Cl)c1Cl [Compound 77]	IC50	> 10 µM
NC(=O)c1nc(N2CC3CCCC(N)C3C2)nc(N)c1-c1cccc(Cl)c1Cl (stereo not drawn) [Compound 50]	IC50	10 µM
NC(=O)c1nc(N2CCC(N)(CO)CC2)nc(N)c1-c1cccc(Cl)c1Cl [Compound 29]	IC50	0.26 µM

Task: Identify the measured IC50 of Cc1nc(NC2CCCC(N)C2)nc(C(N)=O)c1-c1cccc(Cl)c1Cl (stereo not drawn) [Compound 28] for Full length SHP2 protein (Recombinant Human SHP-2) (Homo sapiens, UniProt Q06124).
Result: 0.36 µM

Task: Identify the measured IC50 of CC1(N)CCN(c2nc(F)c(-c3cccc(F)c3)c(C(N)=O)n2)CC1 [Compound 22] for Full length SHP2 protein (Recombinant Human SHP-2) (Homo sapiens, UniProt Q06124).
Result: 21 µM

Task: Identify the measured IC50 of Cc1nc(N2C3COCC2CC(N)C3)nc(C(N)=O)c1-c1cccc(Cl)c1Cl (stereo not drawn) [Compound 33] for Full length SHP2 protein (Recombinant Human SHP-2) (Homo sapiens, UniProt Q06124).
Result: 2.4 µM

Task: Identify the measured IC50 of NC(=O)c1nc(N2CCC(C3OCCCC3N)CC2)nc(N)c1-c1cccc(Cl)c1Cl (stereo not drawn) [Compound 39] for Full length SHP2 protein (Recombinant Human SHP-2) (Homo sapiens, UniProt Q06124).
Result: 6.3 µM
